Measured values drawn from paper PMC6478789 for this set.

Recorded pKd, one value per entry.
Target: TRIM24(PHD,BRD) (Homo sapiens, UniProt O15164)
Sequence (O15164 824-1006 limits assumed): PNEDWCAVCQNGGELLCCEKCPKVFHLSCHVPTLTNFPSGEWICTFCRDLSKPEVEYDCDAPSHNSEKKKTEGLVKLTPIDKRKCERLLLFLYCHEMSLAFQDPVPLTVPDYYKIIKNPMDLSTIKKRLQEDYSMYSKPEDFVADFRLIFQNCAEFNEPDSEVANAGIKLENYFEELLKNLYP
Test: BROMOscan ligand-binding assay
Details: KD, TRIM24(PHD,Bromo.)
pKd: −log10 of the molar value.

// below: answered molecules
[[record]]
molecule = "CCC(=O)N1CCOc2c(cc(-c3ccc(OC)c(OC)c3)cc2OCC2CCCN(C)C2)C1 (stereo not drawn)"
target_or_test_system = "TRIM24(PHD,BRD) (Homo sapiens, UniProt O15164)"
reported_measurement = 4.85

[[record]]
molecule = "O=C(O)c1ccccc1O"
target_or_test_system = "TRIM24(PHD,BRD) (Homo sapiens, UniProt O15164)"
reported_measurement = "< 1.85"


Problem: Given the entry O=C(C=CN1CC2CC1CN2c1ccccn1)c1ccccc1O (stereo not drawn) , what pKd was observed with TRIM24(PHD,BRD) (Homo sapiens, UniProt O15164)?
Result: < 4.00

---

molecular target: TRIM24 (Homo sapiens, UniProt O15164); assay: BROMOscan ligand-binding assay; settings: KD, BROMOscan, TRIM24(Bromo.)
quantity_name: pKd
Remember, pKd is on a log scale: it is -log10 of the molar concentration.

Problem: Suppose we examine the compound COc1ccc(CCc2nc3cc(-c4c(C)noc4C)ccc3n2C[C@H](C)N2CCOCC2)cc1Cl ; what pKd value has been reported?
Result: 4.92

---

target: ATAD2B (Homo sapiens); assay: BROMOscan ligand-binding assay; conditions: KD (BROMOscan), sheet prints no unit (nM)
Sequence (Q9ULI0 951-1066 limits assumed): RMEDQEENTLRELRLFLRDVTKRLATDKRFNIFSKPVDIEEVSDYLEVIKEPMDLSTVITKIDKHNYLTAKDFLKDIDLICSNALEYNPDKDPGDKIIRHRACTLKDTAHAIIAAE
Each entry below carries its recorded Kd.

Recorded Kd, per entry:
[[record]]
compound = "CCCOc1ccn2c(C(C)=O)cc(-c3ccccc3S(C)(=O)=O)c2c1 [GSK2801]"
reported_measurement = "> 30000 nM"

[[record]]
compound = "COc1ccc(CCc2nc3cc(-c4c(C)noc4C)ccc3n2C[C@H](C)N2CCOCC2)cc1Cl [SGC-CBP30]"
reported_measurement = "> 30000 nM"


Problem: Reported Kd for O=C(C=CN1CC2CC1CN2c1ccccn1)c1ccccc1O (stereo not drawn) [PFI-3] : what is it?
Result: > 30000 nM

---

Target: FXR1 (Homo sapiens)
Sequence (P51114 2-132 limits assumed, species assumed): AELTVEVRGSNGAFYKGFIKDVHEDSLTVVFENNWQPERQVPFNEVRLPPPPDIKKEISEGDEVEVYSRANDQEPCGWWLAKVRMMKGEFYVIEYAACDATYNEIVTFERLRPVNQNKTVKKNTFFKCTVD
Assay: Temperature shift assay (non-BRD reader domains)
Type: binding
Details: 10µM compound
Method: Temperature shift assays have been described by Fedorov et al.[46]. Recombinant protein domains (bromodomain or kinases) at a concentration of 2 μM in 10 mM HEPES, pH 7.5, and 500 mM NaCl were mixed with 10 μM of chemical probes. Temperature-dependent protein unfolding profiles were measured using a Real-Time PCR Mx3005p machine (Stratagene). Wu et al., Supplementary figures and tables 14 Supplementary Table 3: Selectivity screening data (non-BRD reader domains): […] reader domains. […]
In this section we review reported Tm (C) 10µM, temperature shift values for a set of compounds.
Please respond with the number in Kelvin and leave the unit unwritten.

[[record]]
compound = "Cc1cc2c(cc1N1C(=O)c3cccc4c(CCCO)ccc(c34)C1=O)n(C)c(=O)n2C"
reported_measurement = 0.8


Problem: # get_value(readout='Tm (C) 10µM, temperature shift', item= COc1cc(Cl)c(C(=O)N[C@@H](CN[C@H]2CC[C@@H](N)CC2)Cc2ccc(C#N)cc2)cc1-c1ccc(CN[C@H](C)c2ccc(C)cc2)o1 )
Result: -1.7

Problem: Given CN(C)CCCOc1ccc(-c2cc(NCCCn3cccn3)nc(S(C)(=O)=O)n2)cc1 , state its recorded Tm (C) 10µM, temperature shift.
Result: 0.4

---

target: BRD4(2) (Homo sapiens, UniProt O60885); experiment: BROMOscan ligand-binding assay
quantity_name: Kd (µM)
Respond numerically; units are µM and should not be typed.

[[record]]
compound = "CCCS(=O)(=O)c1nc(NC2CC2)cc(-c2ccc3c(ccn3C3CC(C)(C)NC(C)(C)C3)c2)n1"
quantity_name = "Kd"
reported_measurement = 5.7

[[record]]
compound = "COc1ccc(CCc2nc3cc(-c4c(C)noc4C)ccc3n2C[C@H](C)N2CCOCC2)cc1Cl"
quantity_name = "Kd"
reported_measurement = 6.2

[[record]]
compound = "CCCOc1ccn2c(C(C)=O)cc(-c3ccccc3S(C)(=O)=O)c2c1"
quantity_name = "Kd"
reported_measurement = 29


Shift focus to the following entry.
Problem: Name the reported Kd value associated with the compound CCC(=O)N1CCOc2c(cc(-c3ccc(OC)c(OC)c3)cc2OCC2CCCN(C)C2)C1 (centres unmarked)
Result: 16

---

molecular target: SUV39H2 (Homo sapiens); construct: purchased DiscoverX BROMOscan (bromodomains); SGC in-house methyltransferase panel; experiment: Methyl transferase scintillation proximity assay; type: biochemical; conditions: average of two measurements, read-out: MTases Inhibition (%)
Sequence (Q9H5I1 whole entry): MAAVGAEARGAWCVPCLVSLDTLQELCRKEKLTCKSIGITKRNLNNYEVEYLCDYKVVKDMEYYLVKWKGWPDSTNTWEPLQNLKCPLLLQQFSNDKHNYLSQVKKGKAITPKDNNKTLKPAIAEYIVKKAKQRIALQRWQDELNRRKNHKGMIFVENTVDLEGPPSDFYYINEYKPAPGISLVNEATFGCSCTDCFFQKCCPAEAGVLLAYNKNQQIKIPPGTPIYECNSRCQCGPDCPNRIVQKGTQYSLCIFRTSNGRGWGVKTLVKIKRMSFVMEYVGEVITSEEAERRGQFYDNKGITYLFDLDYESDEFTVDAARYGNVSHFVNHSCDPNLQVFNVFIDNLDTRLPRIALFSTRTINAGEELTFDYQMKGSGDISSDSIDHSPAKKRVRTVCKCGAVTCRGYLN
Let's look at some molecules and their measured inhibition at 10 µM.
Only the number, expressed in %, is required.

Problem: Please look up its inhibition at 10 µM: COc1cc(Cl)c(C(=O)N[C@@H](CN[C@H]2CC[C@@H](N)CC2)Cc2ccc(C#N)cc2)cc1-c1ccc(CN[C@H](C)c2ccc(C)cc2)o1 [BAY-850]
Result: -2

---

Measured inhibition at 10 µM accompanies every entry in the list below.
Molecular target: SUV420H2 (Homo sapiens)
Construct: purchased DiscoverX BROMOscan (bromodomains); SGC in-house methyltransferase panel
Sequence (Q86Y97 whole entry): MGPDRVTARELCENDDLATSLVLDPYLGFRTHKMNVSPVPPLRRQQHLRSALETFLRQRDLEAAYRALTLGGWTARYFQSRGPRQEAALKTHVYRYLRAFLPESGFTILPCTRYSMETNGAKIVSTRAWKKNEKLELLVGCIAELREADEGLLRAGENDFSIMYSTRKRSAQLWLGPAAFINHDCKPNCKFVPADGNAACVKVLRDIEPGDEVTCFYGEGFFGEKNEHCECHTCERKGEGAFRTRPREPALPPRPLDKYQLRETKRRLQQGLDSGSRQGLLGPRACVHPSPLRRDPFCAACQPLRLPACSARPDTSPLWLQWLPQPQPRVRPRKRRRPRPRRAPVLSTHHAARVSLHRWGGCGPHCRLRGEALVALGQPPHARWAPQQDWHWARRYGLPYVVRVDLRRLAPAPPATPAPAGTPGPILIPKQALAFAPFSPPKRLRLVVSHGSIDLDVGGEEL
Experiment: Methyl transferase scintillation proximity assay
Type: biochemical
Conditions: average of two measurements, read-out: MTases Inhibition (%)
Description: Assays measuring lysine and arginine methyl transferase activity have been described in Scheer et al.. A radioactivity-based scintillation proximity assay was used to monitor incorporation of a tritium-labeled methyl group into the biotinylated substrate of the methyl transferase. A 10-μl reaction containing ^3H-SAM and substrate at concentrations close to the apparent Km values for each enzyme was prepared. […] The counts per minute (CPM) was measured on a TopCount plate reader. […]
Field format: number, assumed %, no unit text.

Examples with answers:
[[record]]
smiles_structure = "Cc1nnc2c3ccccc3c(N[C@@H](C)[C@H](c3ccccc3)N(C)C)nn12"
quantity_name = "inhibition at 10 µM"
unit_info = "%"
reported_measurement = 6

[[record]]
smiles_structure = "CN(C)CCCOc1ccc(-c2cc(NCCCn3cccn3)nc(S(C)(=O)=O)n2)cc1"
quantity_name = "inhibition at 10 µM"
unit_info = "%"
reported_measurement = 0

[[record]]
smiles_structure = "COc1cc(Cl)c(C(=O)N[C@@H](CN[C@H]2CC[C@@H](N)CC2)Cc2ccc(C#N)cc2)cc1-c1ccc(CN[C@H](C)c2ccc(C)cc2)o1"
quantity_name = "inhibition at 10 µM"
unit_info = "%"
reported_measurement = 0

[[record]]
smiles_structure = "Cc1c(NC(=O)c2cc(C(N)=O)nc3cc(F)ccc23)c(C(F)(F)F)nn1Cc1ccc(C(C)(C)C)cc1"
quantity_name = "inhibition at 10 µM"
unit_info = "%"
reported_measurement = -3

[[record]]
smiles_structure = "CO[C@H]1CNC[C@@H](OCC2CCC(F)(F)CC2)[C@@H]1Nc1ncc(-c2cncc(C)c2)c2cc(C)c(=O)[nH]c12"
quantity_name = "inhibition at 10 µM"
unit_info = "%"
reported_measurement = 0


Problem: Form field: reported inhibition at 10 µM of CN1C[C@H](Nc2cnn(C)c(=O)c2Br)C[C@H](c2ccccc2)C1
Result: -1

Problem: Could you share which inhibition at 10 µM value was measured for Cc1c(NC(=O)c2cc(C(N)=O)nc3cc(F)ccc23)c(C(F)(F)F)nn1Cc1ccc(C#N)cc1 ?
Result: -1

---

Biological target: BRD7 (Homo sapiens, UniProt Q9NPI1)
Sequence (Q9NPI1 131-235 limits assumed): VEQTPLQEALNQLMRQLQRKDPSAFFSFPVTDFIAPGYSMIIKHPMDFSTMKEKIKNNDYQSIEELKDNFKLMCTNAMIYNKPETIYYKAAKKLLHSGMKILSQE
Test: BROMOscan ligand-binding assay
Details: KD, BROMOscan Gene Symbol BRD7
Item-by-item account of Kd
I only need the number, in µM, no unit after it.

[[record]]
molecule = "CCC(=O)N1CCOc2c(cc(-c3ccc(OC)c(OC)c3)cc2OCC2CCCN(C)C2)C1 (centres unmarked) [I-CBP112]"
reported_measurement = 7.6


Could you now look at the following molecule, please?
Problem: Reported Kd, molecule CCCOc1ccn2c(C(C)=O)cc(-c3ccccc3S(C)(=O)=O)c2c1 [GSK2801] : ____
Result: 22

---

# activity at 1 µM per record follows
target: HAT1 (Homo sapiens, UniProt O14929); experiment: Histone acetyltransferase (HAT) activity assay; type: biochemical; conditions: 1µM; read-out: HATs Activity (%);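 also: HAT selectivity screen of BRD probe compounds, enzyme activity in % measured with compound at 1 µM and 10 µM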
Sequence (O14929 whole entry, species assumed): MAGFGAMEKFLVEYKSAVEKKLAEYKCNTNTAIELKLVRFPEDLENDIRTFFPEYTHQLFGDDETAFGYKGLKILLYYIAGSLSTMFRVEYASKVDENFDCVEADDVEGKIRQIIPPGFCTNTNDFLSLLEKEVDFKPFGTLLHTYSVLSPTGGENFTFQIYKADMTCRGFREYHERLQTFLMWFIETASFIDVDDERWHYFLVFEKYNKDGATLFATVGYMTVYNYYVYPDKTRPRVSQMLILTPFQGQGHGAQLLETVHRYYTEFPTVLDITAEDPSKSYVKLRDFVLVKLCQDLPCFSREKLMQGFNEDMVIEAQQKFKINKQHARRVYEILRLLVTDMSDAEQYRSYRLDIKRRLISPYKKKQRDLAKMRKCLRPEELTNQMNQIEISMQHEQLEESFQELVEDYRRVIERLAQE
Numeric answer only, unit % assumed.

[[record]]
compound = "Cc1nnc2c3ccccc3c(N[C@@H](C)[C@H](c3ccccc3)N(C)C)nn12 [L-Moses]"
reported_measurement = 100


Problem: What value of measured activity at 1 µM is listed for O=C(C=CN1CC2CC1CN2c1ccccn1)c1ccccc1O (stereo not shown) [PFI-3] ?
Result: 96

Problem: I would be grateful if you could share the reported activity at 1 µM for COc1cc(Cl)c(C(=O)N[C@@H](CN[C@H]2CC[C@@H](N)CC2)Cc2ccc(C#N)cc2)cc1-c1ccc(CN[C@H](C)c2ccc(C)cc2)o1 [BAY-850] .
Result: 101
